tested on: Hs-578T; assay: NCI tumour cell line growth inhibition, 48 h
Activity calls are given as the source filed them. Rule as the data show it: active = GI50 up to about 1.1 µM and inactive = higher.
METRIC: GI50

Here are 6 compounds together with their reported answers.
1) Cc1ccc(/N=N/c2c(O)ccc3cc(S(=O)(=O)O)ccc23)cc1 :: > 100 µM (inactive)
2) Cc1ccccc1C1CC(=O)CC(c2ccccc2C)C12C(=O)NC(=O)NC2=O (stereo not given) :: > 100 µM (inactive)
3) C[C@]12C[C@@H](OC(=O)[C@]1(C)O)[C@@H]([C@]1(O)CC[C@H]3[C@@H]4C[C@H]5O[C@]56C[C@H]5O[C@H]5C(=O)[C@]6(C)[C@H]4CC[C@@]31C)C2 :: > 50 µM (inactive)
4) CCCCn1c(C)c(C(=O)CC)c(C(=O)NCCN2CCN(c3ccccc3Cl)CC2)c1C :: 23.5 µM (inactive)
5) O=C1NN=C2C=C(c3ccc(Cl)cc3)CC(c3cccc(Cl)c3)C12 (stereo not given) :: 19.9 µM (inactive)
6) O=C1c2ccccc2-c2nc(-c3ccccc3)cc3c2c1nc1ccccc13 :: 22.6 µM (inactive)

Could you report GI50 for every entry in the following list?
1. COc1ccccc1C(=O)Nc1ccc(Cl)c(C(=O)OC(C)C)c1
2. Cc1nn(-c2ccccc2)c(C)c1/C=N/NC(=O)c1sc(=S)n(-c2ccccc2)c1N
3. CC(C)(C)OC(=O)NCC(=O)N(CCc1ccc(Cl)c(Cl)c1)CCN1CCCC1
4. O=C(Nc1ccc2c(c1)oc(=O)c1ccccc12)C(Cl)Cl

Result string:
> 100 µM (inactive)
1.85 µM (inactive)
18.8 µM (inactive)
> 100 µM (inactive)
